Parameter switch fluorescence ratio: see the listing below.
- Tested on: ATP;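 further: ATP exposure 15 min at 22 °C before imaging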
- ASSAY OVERVIEW: switch fluorescence ratio, 500 uM ATP over buffer (Cy3 cluster intensity, sum of 5 cycles each) (fold (ratio)); higher = stronger signal-on switching upon ATP binding; sequences stand for … in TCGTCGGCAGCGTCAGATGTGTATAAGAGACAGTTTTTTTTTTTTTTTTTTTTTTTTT…TC
- CONDITION: aptamer strand: ATP DNA aptamer (quencher-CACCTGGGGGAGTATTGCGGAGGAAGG + anchor), 100 nM annealed; ATP concentration: 500 uM
Lab note: record the figure alone, no unit after it.

The cases that follow already have their switch fluorescence ratio on record.
{"SEQ TEXT": "GACGTAAATA", "QUANTITY KIND": "switch fluorescence ratio", "REPORTED RESULT": 1.75}
{"SEQ TEXT": "CCACGGGATT", "QUANTITY KIND": "switch fluorescence ratio", "REPORTED RESULT": 1.08}
{"SEQ TEXT": "TCGGCCGCTG", "QUANTITY KIND": "switch fluorescence ratio", "REPORTED RESULT": 1.05}
{"SEQ TEXT": "AATCGCTGGG", "QUANTITY KIND": "switch fluorescence ratio", "REPORTED RESULT": 0.988}
{"SEQ TEXT": "TGGGAATTTT", "QUANTITY KIND": "switch fluorescence ratio", "REPORTED RESULT": 1.01}

The sequence identified as GGGGGGCCTC registered its switch fluorescence ratio at 0.981

Query ATATTCGGCG yields switch fluorescence ratio of 0.975

Record ACCGCATAGG . Reported switch fluorescence ratio: 1.05

* * *

- Test system: ATP;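 further: ATP exposure 15 min at 22 °C before imaging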
- ASSAY OVERVIEW: switch fluorescence ratio, 500 uM ATP over buffer (Cy3 cluster intensity, sum of 5 cycles each) (fold (ratio)); higher = stronger signal-on switching upon ATP binding; sequences stand for … in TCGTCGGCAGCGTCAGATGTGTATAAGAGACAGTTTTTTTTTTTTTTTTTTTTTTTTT…TC
- CONDITION: aptamer strand: ATP DNA aptamer (quencher-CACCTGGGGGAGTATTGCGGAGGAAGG + anchor), 100 nM annealed; ATP concentration: 500 uM
Form field: switch fluorescence ratio (one value per entry).
API doc: respond with a numeric literal and nothing else, no unit.

These solved cases illustrate the format of a correct answer.
{"SEQ TEXT": "TTTATGGACT", "ASSAYED SYSTEM": "ATP", "switch fluorescence ratio": 1.03}
{"SEQ TEXT": "GATACGGGGA", "ASSAYED SYSTEM": "ATP", "switch fluorescence ratio": 0.988}

Kindly review the next sequence as well.
Memo: TCTTGGTTGA , reported switch fluorescence ratio: 0.968

* * *

- Tested on: ATP;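 further: ATP exposure 15 min at 22 °C before imaging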
- ASSAY OVERVIEW: switch fluorescence ratio, 500 uM ATP over buffer (Cy3 cluster intensity, sum of 5 cycles each) (fold (ratio)); higher = stronger signal-on switching upon ATP binding; sequences stand for … in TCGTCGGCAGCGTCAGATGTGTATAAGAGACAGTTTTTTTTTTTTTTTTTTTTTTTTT…TC
- CONDITION: aptamer strand: ATP DNA aptamer (quencher-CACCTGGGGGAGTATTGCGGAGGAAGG + anchor), 100 nM annealed; ATP concentration: 500 uM
Reported switch fluorescence ratio values for a set of sequences
Form field (numeric): enter value without unit.

{"SEQ TEXT": "TGGGGGGATA", "switch fluorescence ratio": 0.994}
{"SEQ TEXT": "CGAATTAAAC", "switch fluorescence ratio": 0.99}
{"SEQ TEXT": "TAAGATTACA", "switch fluorescence ratio": 1.02}
{"SEQ TEXT": "CGATTGGGGC", "switch fluorescence ratio": 0.992}
{"SEQ TEXT": "CCGGTCTATT", "switch fluorescence ratio": 1}

Data point: GGGAGGGCAT ; switch fluorescence ratio = 1

// ATTTAGGACT : switch fluorescence ratio value = 0.978

Notebook: CGAGTAGAGG , switch fluorescence ratio read as 1.02

Item: TACGTTTGGG | switch fluorescence ratio: 0.981

// switch fluorescence ratio value for ATGTGGTCGC : 0.997

The value of switch fluorescence ratio measured for the sequence TGTTGGTGTA turned out to be 0.994

// switch fluorescence ratio value for ACAGGGGTGG : 1.02
